biological target: interaction between PD-1 and PD-L1 (Homo sapiens (Human), UniProt Q9NZQ7); assay: PD1-PDL1 HTRF binding activity test (Cisbio PD-1/PD-L1 binding assay kit)
Sequence (Q9NZQ7 19-238): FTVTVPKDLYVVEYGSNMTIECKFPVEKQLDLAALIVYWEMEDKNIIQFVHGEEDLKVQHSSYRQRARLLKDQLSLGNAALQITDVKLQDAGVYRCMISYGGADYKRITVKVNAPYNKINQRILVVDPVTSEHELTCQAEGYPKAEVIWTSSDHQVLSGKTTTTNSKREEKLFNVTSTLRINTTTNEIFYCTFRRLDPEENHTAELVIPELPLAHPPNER
Binary call on IC50 with cut-off 0.5 nM: strictly below means YES, and equality or higher means NO.

Look over these answered cases.
[
  {
    "compound": "COc1cc(/C(F)=C/c2cccc(-c3cccc(NC(=O)c4nc5c(n4C)CCN(CCC46CCC(C(=O)O)(CC4)C6)C5)c3Cl)c2Cl)ncc1CNCCO [Example 16]",
    "label.value": "YES"
  },
  {
    "compound": "COc1cc(/C(F)=C/c2cccc(-c3cccc(NC(=O)c4nc5c(n4C)CCN(CCC46CCC(C(=O)O)(CC4)C6)C5)c3Cl)c2Cl)ncc1CN[C@@H]1CCOC[C@H]1O [Example 35]",
    "label.value": "NO"
  },
  {
    "compound": "COc1cc(/C(F)=C/c2cccc(-c3cccc(NC(=O)c4nc5c(n4C)CCN(CCC46CCC(C(=O)O)(CC4)C6)C5)c3Cl)c2Cl)ncc1CNCC(F)F [Example 38]",
    "label.value": "YES"
  }
]

Moving on to another compound below.
Q: Report whether reported IC50 is lower than 0.5 nM (strictly) for COc1cc(/C(F)=C/c2cccc(-c3cccc(NC(=O)c4nc5c(n4C)CCN(CCC46CCC(C(=O)O)(CC4)C6)C5)c3Cl)c2Cl)ncc1CN[C@H](CO)C(=O)O [Example 37]
A: YES

* * *

assay: Pharmacokinetic assay in mice; format: in vivo; conditions: male, mouse; ICR mice, PO 10 mg/kg, plasma, original compound detected
Binary call on Tmax with cut-off 2 h: strictly below means TRUE, and equality or higher means FALSE.

Look over these answered cases.
[
  {
    "smiles.structure": "COc1cc(/C(F)=C/c2cccc(-c3cccc(NC(=O)c4nc5c(n4C)CCN(CCC46CCC(C(=O)O)(CC4)C6)C5)c3Cl)c2Cl)ncc1CN1CCCC1",
    "label.value": "FALSE"
  },
  {
    "smiles.structure": "COc1cc(/C(F)=C/c2cccc(-c3cccc(NC(=O)c4nc5c(n4C)CCN(CCC46CCC(C(=O)O)(CC4)C6)C5)c3Cl)c2Cl)ncc1CN1CC[C@@](C)(C(=O)O)C1",
    "label.value": "TRUE"
  },
  {
    "smiles.structure": "COc1cc(/C(F)=C/c2cccc(-c3cccc(NC(=O)c4nc5c(n4C)CCN(CCC46CCC(C(=O)O)(CC4)C6)C5)c3Cl)c2Cl)ncc1CN1CC[C@@H](C(=O)O)C1",
    "label.value": "TRUE"
  }
]

Moving on to another compound below.
Q: Report whether reported Tmax is lower than 2 h (strictly) for Cc1c(/C=C(\F)c2nc3c(n2C)CCN(C(C)C)C3)cccc1-c1cccc(NC(=O)c2nc3c(n2C)CCN(CCC24CCC(C(=O)O)(CC2)C4)C3)c1C
A: FALSE

* * *

For each of the compounds below, state its IC50.
molecular target: interaction between PD-1 and PD-L1 (Homo sapiens (Human), UniProt Q9NZQ7); assay: PD1-PDL1 HTRF binding activity test (Cisbio PD-1/PD-L1 binding assay kit)
One number for each entry, in nM.

[
  {
    "smiles.structure": "Cn1c(C(=O)Nc2cccc(-c3cccc(/C=C(\\F)c4cc(C5CC5)c(CN5CC(C)(O)C5)cn4)c3Cl)c2Cl)nc2c1CCN(CCC13CCC(C(=O)O)(CC1)C3)C2",
    "IC50 (nM)": 0.306
  }
]

Look at each compound and report its IC50.
1. COc1cc(/C(F)=C/c2cccc(-c3cccc(NC(=O)c4nc5c(n4C)CCN(CCC46CCC(C(=O)O)(CC4)C6)C5)c3Cl)c2Cl)ncc1CN[C@H]1CC[C@@H](O)CC1
2. COc1cc(/C(F)=C/c2cccc(-c3cccc(NC(=O)c4nc5c(n4C)CCN(CCC46CCC(C(=O)O)(CC4)C6)C5)c3Cl)c2Cl)ncc1CNC[C@@H]1CCC(=O)N1
3. COc1cc(/C(F)=C/c2cccc(-c3cccc(NC(=O)c4nc5c(n4C)CCN(CCC46CCC(C(=O)O)(CC4)C6)C5)c3Cl)c2Cl)ncc1CN1CC[C@@H](O)C1

A:
[0.31, 0.352, 0.238]

Q: Which IC50 is listed for Cc1c(/C=C(\F)c2nc3c(n2C)CCN(C(C)C)C3)cccc1-c1cccc(NC(=O)c2nc3c(n2C)CCN(CCC24CCC(C(=O)O)(CC2)C4)C3)c1C ?
A: 0.688

* * *

For each of the molecules below, state its EC50.
assay: Jurkat reporter gene cellular assay; format: cell-based; settings: Homo sapiens; Jurkat/NF-κB-luc/PD1 + Raji-PD-L1 coculture, OKT3 1 μg/mL, 6 hrs, activation fold; read-out: Cell Activity EC50
Give bare numbers, in nM.

[
  {
    "molecule": "COc1cc(/C(F)=C/c2cccc(-c3cccc(NC(=O)c4nc5c(n4C)CCN(CCC46CCC(C(=O)O)(CC4)C6)C5)c3Cl)c2Cl)ncc1CNCCCO",
    "unit.symbol": "nM",
    "observed.value": 137
  },
  {
    "molecule": "COc1cc(/C(F)=C/c2cccc(-c3cccc(NC(=O)c4nc5c(n4C)CCN(CCC46CCC(C(=O)O)(CC4)C6)C5)c3Cl)c2Cl)ncc1CN1CCC2(CC(O)C2)C1 (centres unmarked)",
    "unit.symbol": "nM",
    "observed.value": 117
  },
  {
    "molecule": "COc1cc(/C(F)=C/c2cccc(-c3cccc(NC(=O)c4nc5c(n4C)CCN(CCC46CCC(C(=O)O)(CC4)C6)C5)c3Cl)c2Cl)ncc1CNC12CC3CC(CC(C3)C1)C2",
    "unit.symbol": "nM",
    "observed.value": 1040
  },
  {
    "molecule": "Cc1c(/C=C(\\F)c2nc3c(n2C)CCNC3)cccc1-c1cccc(NC(=O)c2nc3c(n2C)CCN(CCC24CCC(C(=O)O)(CC2)C4)C3)c1C",
    "unit.symbol": "nM",
    "observed.value": 244
  }
]

// next item, EC50 requested
Q: Which EC50 is listed for COc1cc(/C(F)=C/c2cccc(-c3cccc(NC(=O)c4nc5c(n4C)CCN(CCC46CCC(C(=O)O)(CC4)C6)C5)c3Cl)c2Cl)ncc1CNC(C)C ?
A: 86.7

* * *

Experiment: Jurkat reporter gene cellular assay
Type: cell-based
Conditions: Homo sapiens; Jurkat/NF-κB-luc/PD1 + Raji-PD-L1 coculture, OKT3 1 μg/mL, 6 hrs, activation fold; read-out: Cell Activity EC50
Description: The effect of compounds of the examples of the present invention and positive compounds on the interaction between PD-1 and PD-L1 expressed on cell surfaces, and the related influence on T cell functions, were determined by a Jurkat reporter gene cellular assay. […]
measured.attribute: pEC50
Numbers only, as −log10 of the molar value.

[
  {
    "smiles.structure": "COc1cc(/C(F)=C/c2cccc(-c3cccc(NC(=O)c4nc5c(n4C)CCN(CCC46CCC(C(=O)O)(CC4)C6)C5)c3Cl)c2Cl)ncc1CN1CC[C@@H](C)C1",
    "observed.value": 7.21
  },
  {
    "smiles.structure": "COc1cc(/C(F)=C/c2cccc(-c3cccc(NC(=O)c4nc5c(n4C)CCN(CCC46CCC(C(=O)O)(CC4)C6)C5)c3Cl)c2Cl)ncc1CN1CCO[C@@H](CO)C1",
    "observed.value": 6.94
  }
]

Look at each molecule and report its pEC50.
1. COc1cc(/C(F)=C/c2cccc(-c3cccc(NC(=O)c4nc5c(n4C)CCN(CCC46CCC(C(=O)O)(CC4)C6)C5)c3Cl)c2Cl)ncc1CN[C@H]1CC[C@@H](O)CC1
2. COc1cc(/C(F)=C/c2cccc(-c3cccc(NC(=O)c4nc5c(n4C)CCN(CCC46CCC(C(=O)O)(CC4)C6)C5)c3Cl)c2Cl)ncc1CNCCO
3. COc1cc(/C(F)=C/c2cccc(-c3cccc(NC(=O)c4nc5c(n4C)CCN(CCC46CCC(C(=O)O)(CC4)C6)C5)c3Cl)c2Cl)ncc1CN1CC[C@@H](O)C1
4. Cc1c(/C=C(\F)c2nc3c(n2C)CCN(CCC24CCC(C(=O)O)(CC2)C4)C3)cccc1-c1cccc(NC(=O)c2nc3c(n2C)CCN(C(C)C)C3)c1C

A:
1. 6.75
2. 6.88
3. 7.19
4. 6.14

Look at each molecule and report its pEC50.
1. COc1cc(/C(F)=C/c2cccc(-c3cccc(NC(=O)c4nc5c(n4C)CCN(CCC46CCC(C(=O)O)(CC4)C6)C5)c3Cl)c2Cl)ncc1CNC(C)(C)C
2. COc1cc(/C(F)=C/c2cccc(-c3cccc(NC(=O)c4nc5c(n4C)CCN(CCC46CCC(C(=O)O)(CC4)C6)C5)c3Cl)c2Cl)ncc1CN[C@H]1C[C@@H](O)C1
3. COc1cc(/C(F)=C/c2cccc(-c3cccc(NC(=O)c4nc5c(n4C)CCN(CCC46CCC(C(=O)O)(CC4)C6)C5)c3Cl)c2Cl)ncc1CN[C@@H](C)CO
4. COc1cc(/C(F)=C/c2cccc(-c3cccc(NC(=O)c4nc5c(n4C)CCN(CCC46CCC(C(=O)O)(CC4)C6)C5)c3Cl)c2Cl)ncc1CN1C[C@@H](O)[C@H](F)C1
5. COc1cc(/C(F)=C/c2cccc(-c3cccc(NC(=O)c4nc5c(n4C)CCN(CCC46CCC(C(=O)O)(CC4)C6)C5)c3Cl)c2Cl)ncc1CNC[C@@H]1CCC(=O)N1

A:
1. 7.27
2. 6.94
3. 6.98
4. 7.14
5. 7.09
